Data origin: patent US20220220218A1

pEC50 reference
- system: T1, CD73-Myc-His (a fusion protein of the CD73 mature protein extracellular domain and Myc tag and His tag) (human, UniProt P21589 27-547, biotinylated with a kit (sites not given))
- T1 construct: Captured on streptavidin-coated plates in the ELISA; also called biotinylated CD73-myc-his fusion protein; human CD73 protein
- T1 sequence: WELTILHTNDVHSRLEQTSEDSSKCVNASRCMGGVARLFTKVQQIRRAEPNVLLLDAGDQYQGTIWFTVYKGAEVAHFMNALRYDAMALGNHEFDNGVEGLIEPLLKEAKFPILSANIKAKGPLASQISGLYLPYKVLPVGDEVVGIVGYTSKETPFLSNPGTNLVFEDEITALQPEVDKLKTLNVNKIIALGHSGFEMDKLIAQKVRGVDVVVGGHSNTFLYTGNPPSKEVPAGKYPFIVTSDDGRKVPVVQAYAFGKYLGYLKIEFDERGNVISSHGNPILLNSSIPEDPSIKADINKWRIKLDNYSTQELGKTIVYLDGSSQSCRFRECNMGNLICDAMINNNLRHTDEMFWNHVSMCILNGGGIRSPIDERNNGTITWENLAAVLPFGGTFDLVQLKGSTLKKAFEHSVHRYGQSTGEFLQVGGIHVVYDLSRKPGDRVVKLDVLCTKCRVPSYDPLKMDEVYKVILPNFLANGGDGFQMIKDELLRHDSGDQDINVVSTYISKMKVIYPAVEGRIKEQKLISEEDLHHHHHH
- testMethodNotes: ELISA; biotinylated CD73-myc-his captured on streptavidin plate
- Description: The binding of anti-CD73 antibodies to human CD73 protein was tested by ELISA assay. The biotinylated CD73 fusion protein was immobilized onto a 96-well microtiter plate by binding to the Streptavidin coated on the microtiter plate. The signal strength after the addition of the antibody was used to determine the binding activity of the antibody to CD73. The specific experimental procedures were as follows: […]
pEC50: −log10 of the molar value.
metric: pEC50

* CPX006 (antibody CPX-006 disclosed in patent application WO2018013611) (antibody, V domains shown) VH: QVQLVQSGAEVEKPGASVKVSCKASGYTFTSYWITWVRQAPGQGLEWMGDIYPGSGNTNYNEKFKTRVTITADKSTSTAYMELSSLRSEDTAVYYCAKEGGLTTEDYALDYWGQGTLVTVSS VL: EIVLTQSPATLSLSPGERATLSCRASKNVSTSGYSYMHWYQQKPGQAPRLLIYLASNLESGIPPRFSGSGYGTDFTLTINNIESEDAAYYFCQHSRELPFTFGQGTKVEIKR | 10.06
* Hab127.31d (antibody, human IgG1, kappa, V domains shown, also called humanized antibody of mab127) VH: EVQLVQSGAEVKKPGASVKVSCKASGYTFTAYFMNWVRQAPGQGLEWMGRIYHNKGDTFYSQKFKGRVTMTVDKSTSTVYMELSSLRSEDTAVYYCATSYVGDWGQGTTVTVSS VL: DIQMTQSPSSLSASVGDRVTITCRASQDIGDSLNWLQQKPGGALKRLIYATSSLDSGVPSRFSGSGSGTEYTLTISSLQPEDFATYYCLQYASFPWTFGGGTKVEIKR | 10.59
* Hab110.21 (antibody, human IgG1, kappa, V domains shown, also called humanized antibody of mab110) VH: EVQLVQSGAEVKKPGASVKVSCKASGYTFTSYTMHWVRQAPGQRLEWMGYINPNSFYIEYNQKFKDRVTITRDTSASTAYMELSSLRSEDTAVYYCARGDYDLFYDMDNWGQGTTVTVSS VL: DIQMTQSPSSLSASVGDRVTITCRASQDIGNSLNWLQQKPGKAIKRLIYATFRLDSGVPSRFSGSRSGTEYTLTISSLQPEDFATYYCQQYASFPWTFGGGTKVEIKR | 10.59
* Hab108.64 (antibody, human IgG1, kappa, V domains shown, also called humanized antibody of mab108) VH: EVTLKQSGPGLVKPTETLTLTCTVSGFSLSSYGIQWVRQPPGKGLEWLGVIWSGGSADYNAAFISRLTISKDTSKSQVVLTMTNMDPVDTATYYCAGQYGSVWGQGTLVTVSS VL: DIQMTQSPSSLSASVGDRVTITCRASQDIGDRLNWLQQKPGGAIKRLIYATSSLDSGVPKRFSGSGSGTEYTLTISSLQPEDFATYYCLQYAGSWTFGGGTKVEIKR | 10.33
